Readings of % insulin (in test) for the listed binders
MEASURED TARGET: T1, human insulin receptor (human, UniProt P06213 28-1382)
T1 construct: whole, on cells; receptor-transfected HEK293 cells in the phosphorylation assay
PROCEDURE TEXT: competition SPA, [125I]insulin
Bridge positions count the residues as written; N and C are the ends. Ends that are not written are not given here. I, II: the chains in the order shown.

| BINDER | % insulin (in test) (%) |
| --- | --- |
| IGF-1 A:B (ligand, human, not fully specified (C-terminus); ends and bridges not checked; also: C-terminal amide, chain not given here, domain: B chain; two-chain form of IGF-1) chain 1: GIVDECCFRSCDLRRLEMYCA chain 2: GPETLCGAELVDALQFVCGDRGFYFNKPT | 5.8 |
| IGF-1 A (H8 A9 N21):B(H5D10Y16L17 A22) DPI A-COOH (ligand, not fully specified (C-terminus); ends and bridges not checked) chain 1: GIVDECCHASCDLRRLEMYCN-OH chain 2: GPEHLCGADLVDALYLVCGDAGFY | 1170 |
| IGF-1 A (H8 A9 N21):B(H5D10Y16L17A22) (S═O) DPI A-COOH (ligand, not fully specified (C-terminus); ends and bridges not checked; also: (S═O) oxidation, residue not given here) chain 1: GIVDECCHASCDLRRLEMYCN-OH chain 2: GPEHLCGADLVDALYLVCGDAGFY | 401 |
| IGF-1 A:B (H5D10Y16L17) DPI (ligand, cysteine pairing not given here) chain 1: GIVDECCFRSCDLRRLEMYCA-NH2 chain 2: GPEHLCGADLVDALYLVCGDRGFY-NH2 | 479 |
| IGF-1 A:B(H5D10Y16L17) (S═O) DPI (ligand, ends and bridges not checked; also: (S═O) oxidation, residue not given here) chain 1: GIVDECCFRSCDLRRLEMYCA-NH2 chain 2: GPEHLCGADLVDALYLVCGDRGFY-NH2 | 316 |
| IGF-1 A:IGF-1 B(1-8)-In (9-17)-IGF-1 B(18-30) (ligand, disulfide I:6-I:11, I:20-II:18, I:7-II:6 (inferred); not fully specified, chimeric B chain) chain 1: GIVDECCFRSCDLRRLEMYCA-NH2 chain 2: GPETLCGSHLVEALYLVCGDRGFYFNKPT-NH2 | 19.1 |
